Target: reverse transcriptase of HIV (HIV-1 RT) (Human immunodeficiency virus type 1 group M subtype B)
Kindly note that classification relies on IC50 with these boundaries: low = under 40 µM, intermediate = from 40 µM up to 70 µM, high = 70 µM and over

querySmiles | classLabel
N#CCCCOc1ccc(O)cc1C(=O)C=C(O)C(=O)O | low
O=C(O)C(O)=CC(=O)c1cccc(O)c1 | intermediate
Cc1ccc(C(=O)C=C(O)C(=O)O)cc1 | high
N#Cc1ccc(Br)cc1COc1cccc(C(=O)C=C(O)C(=O)O)c1 | high
N#CCCCOc1ccc(Cl)cc1C(=O)C=C(O)C(=O)O | low

-- ask Lab note: which band did "O=C(O)C(O)=CC(=O)c1ccc(-c2ccccc2)s1" land in?
-- reply intermediate

-- ask Moving on to the next compound: "N#Cc1cccc(Cl)c1COc1cccc(C(=O)C=C(O)C(=O)O)c1"
-- reply intermediate

-- ask Do the same for "O=C(O)C(O)=CC(=O)c1ccc(-c2cc(Cl)cc(Cl)c2)o1" please
-- reply low

-- ask Likewise for "O=C(O)C(O)=CC(=O)c1ccc(-c2ccc(F)c(Cl)c2)o1" ?
-- reply low

-- ask Would you kindly repeat that for "O=C(O)C(O)=CC(=O)c1cccc(NS(=O)(=O)c2cc(Cl)cc(Cl)c2)c1" ?
-- reply high

---

Target: HCV RdRp (NS5B RNA-dependent RNA polymerase) (Hepatitis C virus genotype 1b, UniProt P26663)
Construct: The HCV NS5B protein is the viral RdRp; made in house; host or cells: insect cells infected with recombinant baculovirus
Sequence (P26663 2420-3010): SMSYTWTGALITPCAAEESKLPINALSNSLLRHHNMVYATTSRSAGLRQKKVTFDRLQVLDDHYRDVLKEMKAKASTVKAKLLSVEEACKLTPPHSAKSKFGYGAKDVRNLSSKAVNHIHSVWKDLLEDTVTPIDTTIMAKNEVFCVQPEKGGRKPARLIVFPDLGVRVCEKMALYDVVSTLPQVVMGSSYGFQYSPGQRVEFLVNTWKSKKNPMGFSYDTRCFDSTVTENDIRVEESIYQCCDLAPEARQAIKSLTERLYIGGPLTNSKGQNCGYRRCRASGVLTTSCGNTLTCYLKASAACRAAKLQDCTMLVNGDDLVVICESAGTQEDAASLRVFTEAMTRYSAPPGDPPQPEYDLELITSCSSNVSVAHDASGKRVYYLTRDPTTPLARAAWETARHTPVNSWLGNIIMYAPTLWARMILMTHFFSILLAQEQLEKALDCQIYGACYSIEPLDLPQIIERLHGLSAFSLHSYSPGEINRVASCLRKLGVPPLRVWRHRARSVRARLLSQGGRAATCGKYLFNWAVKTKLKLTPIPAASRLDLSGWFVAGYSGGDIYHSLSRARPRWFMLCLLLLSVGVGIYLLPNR
Assay: Inhibition of hepatitis C virus RdRp (poly(A)/oligo(U), [3H]UTP incorporation)
Format: biochemical
Conditions: Tables I-VIII; 20 nM NS5B, 1 hour at 22° C.; read-out: IC 50 (μM), HCV-polymerase
experimentalEndpoint: IC50 (µM)
Give the quantity in µM, number only.

compound | IC50 (µM)
O=C(O)C(O)=CC(=O)c1cccc(N2CCCC2)c1 [Example 15] | 83.5
N#Cc1ccccc1Cn1cccc1C(=O)C=C(O)C(=O)O [Example 184] | 6.7
O=C(O)C(O)=CC(=O)c1cccc(NS(=O)(=O)c2cc(Cl)c(Cl)cc2Cl)c1 [Example 119] | 0.049
O=C(O)C(O)=CC(=O)c1cccc(OCc2ccccc2C(=O)O)c1 [Example 90] | 1.8
O=C(O)C(O)=CC(=O)c1cccc(NS(=O)(=O)c2c(Cl)cccc2Cl)c1 [Example 120] | 0.36

-- ask IC50 for O=C(O)C(O)=CC(=O)c1cccn1Cc1ccc2ccccc2c1 [Example 188] ?
-- reply 12.7

-- ask Another compound: O=C(O)/C(O)=C/C(=O)C1(Cc2ccc(Cl)cc2)CCCN(S(=O)(=O)c2ccc(Br)cc2)C1 (stereo not drawn) [Example 252]
-- reply 61

-- ask What about this compound? O=C(O)C(O)=CC(=O)c1cccc(OCc2ccccc2-c2ccccc2)c1 [Example 97]
-- reply 2.8

-- ask How about this compound: O=C(O)C(O)=CC(=O)c1cccn1CC1CCCCC1 [Example 178]
-- reply 17.9

---

Target: HCV RdRp (NS5B RNA-dependent RNA polymerase) (Hepatitis C virus genotype 1b, UniProt P26663)
Construct: The HCV NS5B protein is the viral RdRp; made in house; host or cells: insect cells infected with recombinant baculovirus
Assay: Inhibition of hepatitis C virus RdRp (poly(A)/oligo(U), [3H]UTP incorporation)
Type: biochemical
Details: Tables I-VIII; 20 nM NS5B, 1 hour at 22° C.; read-out: IC 50 (μM), HCV-polymerase
Procedure: In initial tests, the compounds were tested to see if they were effective as inhibitors of the RNA-dependent RNA polymerase (RdRp) of hepatitis C virus (HCV). […] WO96/37619 describes the production of recombinant HCV RdRp from insect cells infected with recombinant baculovirus encoding the enzyme. […] Incorporation of tritiated UTP is quantified by measuring acid-insoluble radioactivity. […] Incorporation of radioactive UMP was measured as follows. […]
experimentalEndpoint: IC50 (µM)
Please respond with the number in µM and leave the unit unwritten.

Below are worked cases with known answers.
molecule | quantityUnit | value
O=C(O)C(O)=CC(=O)c1ccc(-c2ccc(F)c(Cl)c2)o1 | µM | 41.2
O=C(O)C(O)=CC(=O)c1ccc(O)cc1 | µM | 5.5
O=C(O)C(O)=CC(=O)c1cccc(NC(=O)c2ccccc2)c1 | µM | 11
O=C(O)/C(O)=C/C(=O)C1(Cc2ccc(Cl)cc2)CCCN(Cc2ccccc2)C1 (stereo not drawn) | µM | 45
O=C(O)C(O)=CC(=O)c1cccc(NS(=O)(=O)c2ccc(Cl)c([N+](=O)[O-])c2)c1 | µM | 0.56
N#Cc1cccc(C(=O)Nc2cccc(C(=O)C=C(O)C(=O)O)c2)c1 | µM | 9.2
O=C(O)C(O)=CC(=O)c1cccc(OCc2cccc(C(F)(F)F)c2)c1 | µM | 1.9
O=C(O)C(O)=CC(=O)c1cccc(OCc2cccc3ccccc23)c1 | µM | 0.67
O=C(C=C(O)C(=O)O)CC1CCCCC1 | µM | 50
COc1ccccc1C(=O)C=C(O)C(=O)O | µM | 11.6

-- ask State the recorded IC50 for this entry: "O=C(O)C(O)=CC(=O)C12CC3CC(CC(C3)C1)C2"
-- reply 6.7

-- ask Now the molecule "N#Cc1cccc(Cl)c1COc1cc(O)cc(C(=O)C=C(O)C(=O)O)c1"
-- reply 0.1

-- ask Moving on to the next molecule: "N#CCCCOc1ccc(Br)cc1C(=O)C=C(O)C(=O)O"
-- reply 2.3

-- ask Now the same for "N#CCCCOc1ccccc1C(=O)C=C(O)C(=O)O"
-- reply 0.38
